Below is a list of entries, each paired with its recorded FPN IC50 value.
Molecular target: T1, human ferroportin (SLC40A1) fused with GFP, stably expressed in HEK293 cells (human, UniProt Q9NP59 1-571)
T1 sequence (looked up): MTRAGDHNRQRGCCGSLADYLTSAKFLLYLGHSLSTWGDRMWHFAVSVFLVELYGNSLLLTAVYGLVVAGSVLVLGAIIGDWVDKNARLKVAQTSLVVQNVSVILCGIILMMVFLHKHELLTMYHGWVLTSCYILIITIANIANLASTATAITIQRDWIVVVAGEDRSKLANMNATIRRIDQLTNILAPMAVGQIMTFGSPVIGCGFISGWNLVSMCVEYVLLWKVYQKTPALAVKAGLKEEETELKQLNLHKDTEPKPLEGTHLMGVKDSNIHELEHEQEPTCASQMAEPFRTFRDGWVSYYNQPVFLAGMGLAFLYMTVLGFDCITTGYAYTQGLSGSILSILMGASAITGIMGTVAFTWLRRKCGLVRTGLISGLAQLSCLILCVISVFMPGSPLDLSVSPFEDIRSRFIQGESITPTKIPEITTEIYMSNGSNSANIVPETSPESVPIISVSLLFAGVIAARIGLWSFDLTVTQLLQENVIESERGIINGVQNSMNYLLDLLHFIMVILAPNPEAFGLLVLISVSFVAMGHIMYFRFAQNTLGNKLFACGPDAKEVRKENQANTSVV
Test: cell-based or functional assay
Starred links: 1 amine or outer side, 2 acyl side, 3 side chain; linkers in the order of their positions; H or OH if unused. Positions of bridges follow the written chain, without caps; N, C: chain ends. Non-standard residues stand in square brackets, D forms with d. Groups on a side chain read outwards from the residue. Primed or numbered codes have the meaning given here. *: point of attachment. PEG12 = NCCOCCOCCOCCOCCOCCOCCOCCOCCOCCOCCOCCOCCC(=O)O; Dip = N[C@H](C(=O)O)C(c1ccccc1)c1ccccc1; γGlu = O=C(O)[C@H](CCC(=O)[*:2])N[*:1]; 2Nal = N[C@@H](Cc1ccc2ccccc2c1)C(=O)O; Palmitoyl = CCCCCCCCCCCCCCCC(=O)*; β3hF = N[C@H](CC(=O)O)Cc1ccccc1; Pen = CC(C)(S)[C@H](N)C(=O)O; Isovaleryl = CC(C)CC(=O)*; Nle = CCCC[C@H](N)C(=O)O; PEG2′ = not defined here; dDap = NC[C@@H](N)C(=O)O; Dap = NC[C@H](N)C(=O)O; Npc = nipecotic acid; Ahx = NCCCCCC(=O)O

BINDER	FPN IC50
Isovaleryl-DTH[Dip]PCI[dA][β3hF]K([PEG12-Palmitoyl])[dK]C-NH2 (disulfide 6-12 (inferred)) [Compd ID 146]	11 nM
DTHFPXIKFKKC (Isovaleric acid-DTHFP-[a-MeCys]-I-[(D)Lys]-F-[Lys(Peg11-Palm)]-K-C-NH2) [Compd ID 116]	11 nM
Isovaleryl-DTH[Dip]PCI[dK][β3hF][Dap]([dDap-Palmitoyl])C-NH2 (disulfide 6-11 (inferred)) [Compd ID 163]	7 nM
DTHXPCIKFKKC (Isovaleric acid-DTH-[Phe(4-COOH)-PCI-[(D)Lys]-F-[Lys(Peg11-Palm)]-[(D)Lys]-C-NH2) [Compd ID 120]	> 1000 nM
DTHXPCIKFKKX (Isovaleric acid-DTH-[Dpa]-PCI-[(D)Lys]-F-[Lys(Peg11-Palm)]-K-[N-Me-Cys]-NH2) [Compd ID 133]	13.5 nM
DTHXPCIKXKKC (Isovaleric acid-DTH-[Dpa]-PCI-[(D)Lys-Peg11*]-[b-hPhe]-[Lys(Peg11-Palm)]-[(D)Lys-Peg11*]-C-NH2 (*PEG11-OMe)) [Compd ID 153]	19 nM
Isovaleryl-DTHFPCI[dK]FK([PEG12-Palmitoyl])PRSC-NH2 (disulfide 6-14 (inferred)) [Compd ID 72]	12 nM
Isovaleryl-DTH[Dip][Npc]CI[dK][2Nal]K([PEG12-Palmitoyl])KC-NH2 (disulfide 6-12 (inferred)) [Compd ID 112]	4 nM
DTHFPCIKFKPRSC (Isovaleric acid-DTHFPCIKF-Lys[PEG11-Palm]-PRSC-NH2) [Compd ID 5]	30 nM
Isovaleryl-DIH[Dip]PCI[dK]FK([PEG12-Palmitoyl])[dK]C-NH2 (disulfide 6-12 (inferred)) [Compd ID 130]	169 nM
Isovaleryl-DTHFPCI[dK]FK([PEG12-Palmitoyl])K[Pen]-NH2 (disulfide 6-12 (inferred)) [Compd ID 98]	40 nM
Isovaleryl-DTHFPCI[dK]FK([Ahx-Palmitoyl])C-NH2 (disulfide 6-11 (inferred)) [Compd ID 25]	11 nM
DTHXPCIKXKKC (Isovaleric acid-DTH-[Dpa]-PCI-[(D)Lys]-[b-hPhe]-[Lys(Ahx-Palm)]-[(D)Lys]-C-NH2) [Compd ID 165]	6 nM
DTHFPCIKXKKC (Isovaleric acid-DTHFPCI-[(D)Lys]-[b-homoPhe]-Lys[PEG11-Palm]-K-[Cys]-NH2) [Compd ID 101]	24 nM
DTHXPCIKFKKC (Isovaleric acid-DTH-[Dpa]-PCI-[(D)Lys]-F-[Lys(Peg11-Palm)]-[(D)Lys]-C-NH2) [Compd ID 139]	19.5 nM
Isovaleryl-DTHFPCI[dK]FK([PEG2′-Ahx-Palmitoyl])C-NH2 (disulfide 6-11 (inferred)) [Compd ID 29]	30 nM
Isovaleryl-DTHFPCI[dK]FK([PEG2′-PEG2′-Palmitoyl])KC-NH2 (disulfide 6-12 (inferred)) [Compd ID 88]	13 nM
Isovaleryl-DTHFPCI[Nle]FK([PEG12-Palmitoyl])C-NH2 (disulfide 6-11 (inferred)) [Compd ID 15]	2 nM
DTHXPCIKXKKC (Isovaleric acid-DTH-[Dpa]-PCI-[(D)Lys]-[b-hPhe]-[Lys(IsoGlu-Palm)]-[(D)Lys]-C-NH2) [Compd ID 158]	6 nM
Isovaleryl-DTHFPCI[dK]FK([PEG2′-γGlu-Palmitoyl])C-NH2 (disulfide 6-11 (inferred)) [Compd ID 26]	13 nM
Isovaleryl-DTH[Dip]PCI[dK][β3hF][Dap]([dDap-Palmitoyl])C-NH2 (disulfide 6-11 (inferred)) [Compd ID 164]	6 nM
DTHXPCIKXKKC (Isovaleric acid-DTH-[Dpa]-PCI-[(D)Lys]-[b-hPhe]-[Lys(Peg11-Octane)]-[(D)Lys]-C-NH2) [Compd ID 155]	279 nM
DTHFPCIKFKPRSKC (Isovaleric acid-DTHFPCIKF-Lys[PEG11-Palm]-PRSKC-NH2) [Compd ID 4]	32 nM

Reference for the values: patent US20200361992A1
